- Tested on: migraine headache
- assay-context: human, in vivo
readout: benefit as migraine prophylactic agent

* Clc1ccc2nsnc2c1NC1=NCCN1 | without benefit
* NC(=O)N1c2ccccc2C=Cc2ccccc21 [carbamazepine] | without benefit
* CC(C)C[C@H](CN)CC(=O)O | without benefit

Every entry's value here was drawn from patent US20250387426A1.
